All figures here come from PubChem BioAssay (EPA / NIEHS).

Read-out: adenosine kinase (ADK) gene, ADK (gene 132)
Experiment: LTEA_HepaRG_ADK: Life Technologies and Expression Analysis (LTEA) Assay for adenosine kinase (ADK) gene using HepaRG (AID 2283471)
Settings: mRNA level, 48 h; actives raise or lower the signal
Calls of active or inactive are those of the source. Rule for the calls: active = hit-call score of the fitted dose curve at least 0.9, where 1 is the maximum; inactive = score below 0.9.
Outcomes: yes (1) = active, no (0) = inactive

# compound, class name
measured = [
    ("CC(C)N1C(=O)N(c2ccccc2)CSC1=NC(C)(C)C", "no (0)"),
    ("COC(=O)c1c(C(F)F)nc(C(F)(F)F)c(C2=NCCS2)c1CC(C)C", "no (0)"),
    ("CCOc1nc(C(Cl)(Cl)Cl)ns1", "yes (1)"),
    ("Nc1c(Cl)c(F)nc(OCC(=O)O)c1Cl", "no (0)"),
    ("CCOP(=S)(OCC)Oc1nc(Cl)n(C(C)C)n1", "no (0)"),
    ("CC1(C)C(C(=O)OC(C#N)c2cccc(Oc3ccccc3)c2)C1(C)C (centres undefined)", "no (0)"),
    ("CCSC(=O)N1CCCCCC1", "no (0)"),
    ("CCCN(CC)CC1COC2(CCC(C(C)(C)C)CC2)O1 (centres undefined)", "no (0)"),
    ("CC(C)N1C(=O)c2ccccc2NS1(=O)=O", "no (0)"),
]

---

Molecular target: rabbit Imidazoline 2 Central (I2C), CKB (gene 100009085) (UniProt P00567)
Sequence (P00567 whole entry, looked up): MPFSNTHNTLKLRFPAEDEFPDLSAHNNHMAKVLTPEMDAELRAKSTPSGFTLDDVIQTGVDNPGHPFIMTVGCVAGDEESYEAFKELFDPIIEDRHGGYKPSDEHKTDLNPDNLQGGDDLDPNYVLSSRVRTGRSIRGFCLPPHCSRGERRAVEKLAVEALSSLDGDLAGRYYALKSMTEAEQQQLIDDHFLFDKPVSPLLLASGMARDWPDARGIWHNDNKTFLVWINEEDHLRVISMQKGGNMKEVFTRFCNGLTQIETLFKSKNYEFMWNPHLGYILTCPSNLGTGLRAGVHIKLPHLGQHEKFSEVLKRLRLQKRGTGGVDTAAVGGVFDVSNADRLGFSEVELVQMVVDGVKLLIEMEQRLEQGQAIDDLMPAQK
Test: NVS_ENZ_rabI2C: NovaScreen (NVS) Enzymatic Assay for rabbit Imidazoline 2 Central (I2C) (AID 2283228)
Inconclusive results are not listed. Active and inactive are the calls of the source. Rule for the calls: active = hit-call score of the fitted dose curve at least 0.9, where 1 is the maximum; inconclusive = response in the unintended direction; inactive = score below 0.9.
Outcomes: active, inactive

# compound, class name
records = [
    ("Cc1ccc(N=CN(C)C=Nc2ccc(C)cc2C)c(C)c1", "active"),
    ("CCCN(CC)CC1COC2(CCC(C(C)(C)C)CC2)O1 (centres undefined)", "active"),
    ("CCN(CC)C(=O)C(C)Oc1cccc2ccccc12 (centres undefined)", "inactive"),
    ("Cn1c(-c2ccccc2)cc(-c2ccccc2)[n+]1C", "active"),
]

---

Read-out: Monocyte Chemoattractant Protein-1 (MCP1), CCL2 (gene 6347)
Experiment: BSK_4H_MCP1: BioMAP Diversity Plus: 4H Assay for Monocyte Chemoattractant Protein-1 (MCP1) Biomarker Activity (AID 2283018)
Conditions: primary human endothelial cells (HUVEC); actives raise or lower the signal
Procedure: BSK_4H is a cell-based, multiplexed-readout assay that uses umbilical vein endothelium, a human vascular primary cell, with measurements taken at 24 hours after chemical dosing in a 96-well plate.BSK_4H_MCP1 is an assay component measured in the BSK_4H assay. It measures MCP-1 antibody related to regulation of gene expression using ELISA technology.Data from the assay component BSK_4H_MCP1 was analyzed into 1 assay endpoint. […]
The source made the active and inactive calls. How the source made its calls: active means hit-call score of the fitted dose curve at least 0.9, where 1 is the maximum; inactive means score below 0.9.
Labels: active, inactive

# compound, class name
measured = [
    ("CN/C(=N\\[N+](=O)[O-])NCc1cnc(Cl)s1", "inactive"),
    ("CCCCC(O)(Cn1cncn1)c1ccc(Cl)cc1Cl (stereo unspecified)", "inactive"),
    ("Cc1nc(N(C)C)nc(OC(=O)N(C)C)c1C", "inactive"),
    ("N#Cc1c[nH]cc1-c1cccc2c1OC(F)(F)O2", "inactive"),
    ("O=P(O)(O)CCCl", "inactive"),
    ("O=c1n(Cl)c(=O)n(Cl)c(=O)n1Cl", "inactive"),
    ("CCOc1nc(F)cc2nc(S(=O)(=O)Nc3c(Cl)cccc3Cl)nn12", "inactive"),
    ("CCCCOCN(C(=O)CCl)c1c(CC)cccc1CC", "active"),
    ("O=C1C2CC=CCC2C(=O)N1SC(Cl)(Cl)Cl (stereo unspecified)", "inactive"),
    ("Nc1c(Cl)c(Cl)nc(C(=O)O)c1Cl", "inactive"),
    ("CC1(C)C(C=C(Cl)Cl)C1C(=O)OC(C#N)c1cccc(Oc2ccccc2)c1 (stereo unspecified)", "active"),
    ("CCOc1cc(C(C)(C)C)ccc1C1COC(c2c(F)cccc2F)=N1 (stereo unspecified)", "active"),
    ("COC(=O)c1c(C(F)F)nc(C(F)(F)F)c(C2=NCCS2)c1CC(C)C", "active"),
    ("CCOC(=O)C(C)OC(=O)c1cc(Oc2ccc(C(F)(F)F)cc2Cl)ccc1[N+](=O)[O-] (stereo unspecified)", "active"),
    ("N#CN=C1SCCN1Cc1ccc(Cl)nc1", "inactive"),
    ("Cc1cc(C)nc(Nc2ccccc2)n1", "inactive"),
    ("CS(=O)(=O)c1ccc(C(=O)C2C(=O)CCCC2=O)c([N+](=O)[O-])c1", "inactive"),
    ("CCCCC(C#N)(Cn1cncn1)c1ccc(Cl)cc1 (stereo unspecified)", "inactive"),
    ("CCNP(=S)(OC)O/C(C)=C/C(=O)OC(C)C (stereo unspecified)", "inactive"),
    ("Nc1c(Cl)c(F)nc(OCC(=O)O)c1Cl", "inactive"),
    ("CCOc1nc(C(Cl)(Cl)Cl)ns1", "inactive"),
    ("CC1(C)CCC(=Cc2ccc(Cl)cc2)C1(O)Cn1cncn1 (stereo unspecified)", "inactive"),
    ("CCCN(CC)CC1COC2(CCC(C(C)(C)C)CC2)O1 (stereo unspecified)", "inactive"),
    ("COCc1cnc(C2=NC(C)(C(C)C)C(=O)N2)c(C(=O)O)c1 (stereo unspecified)", "inactive"),
    ("N#Cc1c(Cl)cccc1Cl", "inactive"),
    ("COP(=S)(OC)Oc1ccc([N+](=O)[O-])c(C)c1", "inactive"),
]
